Data origin: patent US20230322958A1

Biological target: T1, huNotch2-EGF6-10 (human, UniProt Q04721 219-418)
T1 construct: also called human Notch2 EGF6-10
T1 sequence: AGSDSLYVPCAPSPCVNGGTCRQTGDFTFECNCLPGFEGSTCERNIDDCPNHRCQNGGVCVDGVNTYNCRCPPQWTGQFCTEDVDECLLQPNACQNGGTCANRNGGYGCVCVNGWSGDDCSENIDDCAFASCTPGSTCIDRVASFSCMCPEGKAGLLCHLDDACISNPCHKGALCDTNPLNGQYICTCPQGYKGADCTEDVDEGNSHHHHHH
Test: SPR BIAcore, separate experiment, substantially as for Table 4
Could you please report measured Kd for the items listed next?

binder="hu.3107.L6H15 (antibody, V domains shown, also called hu.Notch-3107.L6H15) VH: EVQLVQSGAEVKKPGESLKISCKGSGYTFSNYVIHWVRQMPGKGPEWTGYIIPGSGGTKFNEKFKGQATISVDKSITTAYLQWSSLKASDTAMYYCARDGAGSFTYWGQGTLVTVSS VL: DVVMTQSPDSLAVSLGERATINCRSSQSLVHSDGNTYLHWFQQKPGQPPKLLIYRISNRFSGVPDRFSGSGSGTDFTLTISSLQAEDVAVYYCLQSTHFPDTFGGGTKVEIK" result="9.23 nM"
binder="hu.3107.L7H15 (antibody, V domains shown, also called hu.Notch-3107.L7H15) VH: EVQLVQSGAEVKKPGESLKISCKGSGYTFSNYVIHWVRQMPGKGPEWTGYIIPGSGGTKFNEKFKGQATISVDKSITTAYLQWSSLKASDTAMYYCARDGAGSFTYWGQGTLVTVSS VL: DIVMTQSPDSLAVSLGERATINCRSSQSLVHSDGNTYLHWYQQKPGQPPKLLIYRISNRFSGVPDRFSGSGSGTDFTLTISSLQAEDVAVYYCLQSTHFPDTFGGGTKVEIK" result="11.6 nM"
binder="hu.3107.L1H13 (antibody, V domains shown, also called hu.Notch-3107.L1H13) VH: EVQLVQSGAEVKKPGASVKVSCKASGYTFSNYVIHWVRQAPGQGPEWTGYIIPGSGGTKFNEKFKGRATSTVDTSITTAYMELSRLRSDDTVVYYCARDGAGSFTYWGQGTLVTVSS VL: DVVMTQSPLSLPVTLGQPASISCRSSQSLVHSDGNTYLHWFQQRPGQSPRLLIYRISNRFSGVPDRFSGSGSGTDFTLKISRVEAEDVGVYYCLQSTHFPDTFGGGTKVEIK" result="15.5 nM"
binder="hu.3107.L7H13 (antibody, V domains shown, also called hu.Notch-3107.L7H13) VH: EVQLVQSGAEVKKPGASVKVSCKASGYTFSNYVIHWVRQAPGQGPEWTGYIIPGSGGTKFNEKFKGRATSTVDTSITTAYMELSRLRSDDTVVYYCARDGAGSFTYWGQGTLVTVSS VL: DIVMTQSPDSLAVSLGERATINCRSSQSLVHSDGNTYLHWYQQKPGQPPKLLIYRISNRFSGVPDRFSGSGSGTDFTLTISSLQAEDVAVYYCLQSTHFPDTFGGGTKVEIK" result="9.94 nM"

// query Please give the measured Kd for this binder: hu.3107.L1H15 (antibody, V domains shown, also called hu.Notch-3107.L1H15) VH: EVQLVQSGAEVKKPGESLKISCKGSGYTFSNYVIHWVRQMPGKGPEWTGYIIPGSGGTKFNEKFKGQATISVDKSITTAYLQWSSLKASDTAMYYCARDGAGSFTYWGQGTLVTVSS VL: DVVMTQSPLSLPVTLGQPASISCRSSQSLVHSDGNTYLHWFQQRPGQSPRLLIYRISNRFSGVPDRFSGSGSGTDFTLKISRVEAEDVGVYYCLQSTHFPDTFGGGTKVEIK
// result 17.9 nM
